TEST METHOD NOTES: Antiproliferative activity against human COLO205 cells expressing B-Raf V600E mutant incubated for 68 hrs by MTT assay
Assay type: functional, cell-based
SETTINGS: COLO 205, 68 h
Hi! Just check whether IC50 is below 300 nM. Below gives Met, equal or above gives Not met.

>>> answer_label("O=S(=O)(Nc1ccc(F)c(C#Cc2cnc3[nH]nc(-c4ccncc4)c3c2)c1F)c1cccnc1")
"Met"

Exercise: Lab log: compare recorded IC50 with 300 nM; is it strictly lower for O=S(=O)(Nc1ccc(F)c(C#Cc2cnc3[nH]ncc3c2)c1F)c1ccccc1F ?
Key: Not met

Exercise: Lab log: compare recorded IC50 with 300 nM; is it strictly lower for O=S(=O)(Nc1ccc(F)c(C#Cc2ccc3[nH]ncc3c2)c1F)c1cccnc1 ?
Key: Not met

Exercise: Lab log: compare recorded IC50 with 300 nM; is it strictly lower for O=S(=O)(Nc1ccc(F)c(C#Cc2cnc3[nH]nc(-c4ccc(F)cc4)c3c2)c1F)c1cccnc1 ?
Key: Met

Exercise: Lab log: compare recorded IC50 with 300 nM; is it strictly lower for Cc1n[nH]c2ncc(C#Cc3c(F)ccc(NS(=O)(=O)c4cccnc4)c3F)cc12 ?
Key: Met

Exercise: Lab log: compare recorded IC50 with 300 nM; is it strictly lower for COc1n[nH]c2ncc(C#Cc3c(F)ccc(NS(=O)(=O)c4cccnc4)c3F)cc12 ?
Key: Met

Exercise: Lab log: compare recorded IC50 with 300 nM; is it strictly lower for CCOc1n[nH]c2ncc(C#Cc3c(F)ccc(NS(=O)(=O)c4cccnc4)c3F)cc12 ?
Key: Not met

Exercise: Lab log: compare recorded IC50 with 300 nM; is it strictly lower for O=S(=O)(Nc1ccc(F)c(C#Cc2cnc3[nH]nc(-c4ccccc4Cl)c3c2)c1F)c1cccnc1 ?
Key: Not met

Exercise: Lab log: compare recorded IC50 with 300 nM; is it strictly lower for O=S(=O)(Nc1ccc(F)c(C#Cc2cnc3[nH]nc(-c4ccc(Cl)cc4)c3c2)c1F)c1cccnc1 ?
Key: Not met
